MEASUREMENT_TARGET: RAGE (receptor for advanced glycation end products) (Homo sapiens)
Construct: gene AGER
Sequence (Q15109 23-344): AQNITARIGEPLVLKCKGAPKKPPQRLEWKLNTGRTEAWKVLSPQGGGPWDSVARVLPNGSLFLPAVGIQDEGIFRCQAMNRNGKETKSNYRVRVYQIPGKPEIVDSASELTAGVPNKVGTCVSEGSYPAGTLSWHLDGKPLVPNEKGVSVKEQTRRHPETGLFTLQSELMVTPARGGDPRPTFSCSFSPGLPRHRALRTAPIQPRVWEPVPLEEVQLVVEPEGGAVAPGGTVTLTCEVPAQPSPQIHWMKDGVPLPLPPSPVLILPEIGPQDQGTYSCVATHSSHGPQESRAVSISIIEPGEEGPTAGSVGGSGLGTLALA
ASSAY_NOTES: SPR (Biacore 1S+, CM5 chip, RAGE immobilized, multi-cycle kinetics)
Format: binding
READOUT_TYPE: Kd
Quote the value and follow it with the unit of measurement.

Task: Param item = O=C1c2c(O)cc(O)cc2O[C@H](c2cc(O)c(O)c(O)c2)[C@H]1O [DHM, Dihydromyricetin] ; retrieve measured Kd.
Result: 28.7 µM
